# PROTOCOL_DETAILS: Test 3-1: metabolic stability test in human hepatic microsome
# Type: in vitro ADME
# ASSAY_SETUP: microsome 0.1 mg/mL, test compound 0.1 μmol/L, 37° C., 30 minutes
PARAMETER: Metabolic stability in human hepatic microsome

{"COMPOUND": "CC(O)C(=O)N(CCN1CCC(c2noc3cc(F)ccc23)CC1)CC1CC1 (centres unmarked)", "REPORTED_MEASUREMENT": "<0.05 mL/min/mg protein"}
{"COMPOUND": "CCN(CCCN1CCN(c2noc3cc(F)ccc23)CC1)S(=O)(=O)C(C)CO (centres unmarked)", "REPORTED_MEASUREMENT": "0.059 mL/min/mg protein"}
{"COMPOUND": "CCN(CCN1CCC(c2noc3cc(F)ccc23)CC1)C(=O)C(C)(C)O", "REPORTED_MEASUREMENT": "0.053 mL/min/mg protein"}
{"COMPOUND": "CCN(CCN1CCC(n2ncc3cc(F)ccc32)CC1)C(=O)[C@H](C)O", "REPORTED_MEASUREMENT": "<0.05 mL/min/mg protein"}
{"COMPOUND": "CC(C)N(CCN1CCC(c2noc3cc(F)ccc23)CC1)C(=O)[C@H](C)O", "REPORTED_MEASUREMENT": "<0.05 mL/min/mg protein"}
{"COMPOUND": "CCN(CCN1CCC(c2noc3cc(F)c(C)cc23)CC1)S(=O)(=O)CCO", "REPORTED_MEASUREMENT": "<0.05 mL/min/mg protein"}
{"COMPOUND": "CCN(CCN1CCC(c2noc3cc(F)ccc23)CC1)C(=O)C1CNCCC1O (centres unmarked)", "REPORTED_MEASUREMENT": "<0.05 mL/min/mg protein"}
{"COMPOUND": "CCN(CCN1CCC(c2noc3cc(F)ccc23)CC1)C(=O)CCO", "REPORTED_MEASUREMENT": "<0.05 mL/min/mg protein"}
{"COMPOUND": "CCN(CCN1CCC(c2noc3cc(F)ccc23)CC1)C(=O)C(O)C(C)C (centres unmarked)", "REPORTED_MEASUREMENT": "0.108 mL/min/mg protein"}
{"COMPOUND": "CCN(CCN1CCC(c2noc3cc(F)c(C)cc23)CC1)C(=O)[C@H](C)O", "REPORTED_MEASUREMENT": "0.054 mL/min/mg protein"}
{"COMPOUND": "CCN(CCN1CCC(c2noc3cc(F)ccc23)CC1)C(=O)C(F)(F)CO", "REPORTED_MEASUREMENT": "<0.05 mL/min/mg protein"}
{"COMPOUND": "CCCN(CCN1CCC(c2noc3cc(F)ccc23)CC1)C(=O)C(C)O (centres unmarked)", "REPORTED_MEASUREMENT": "<0.05 mL/min/mg protein"}
{"COMPOUND": "CCN(CCN1CCC(c2noc3cc(F)ccc23)CC1)C(=O)C1(O)CC1", "REPORTED_MEASUREMENT": "<0.05 mL/min/mg protein"}
{"COMPOUND": "CCN(CCN1CCC(n2ncc3cc(F)ccc32)CC1)C(=O)CCO", "REPORTED_MEASUREMENT": "<0.05 mL/min/mg protein"}
{"COMPOUND": "CCN(CCN1CCC(n2ncc3cc(F)ccc32)CC1)C(=O)[C@@H](C)O", "REPORTED_MEASUREMENT": "<0.05 mL/min/mg protein"}
{"COMPOUND": "CCN(CCN1CCC(c2noc3cc(F)ccc23)CC1)C(=O)C1(O)CCCNC1 (centres unmarked)", "REPORTED_MEASUREMENT": "<0.05 mL/min/mg protein"}
{"COMPOUND": "CCN(CCN1CCC(c2noc3cc(F)ccc23)CC1)C(=O)C(O)CNC(C)=O (centres unmarked)", "REPORTED_MEASUREMENT": "<0.05 mL/min/mg protein"}
{"COMPOUND": "CCN(CCN1CCC(c2n[nH]c3cc(F)ccc23)CC1)C(=O)C(C)O (centres unmarked)", "REPORTED_MEASUREMENT": "<0.05 mL/min/mg protein"}
{"COMPOUND": "CCN(CCN1CCC(c2noc3cc(F)ccc23)CC1)C(=O)C1CNCC1O (centres unmarked)", "REPORTED_MEASUREMENT": "<0.05 mL/min/mg protein"}
{"COMPOUND": "CCN(CCN1CCC(c2c[nH]c3ccccc23)CC1)S(=O)(=O)CCO", "REPORTED_MEASUREMENT": "0.06 mL/min/mg protein"}
{"COMPOUND": "CCN(CCN1CCC(c2noc3cc(F)ccc23)CC1)C(=O)[C@@H](C)O", "REPORTED_MEASUREMENT": "<0.05 mL/min/mg protein"}
{"COMPOUND": "CCN(CCN1CCC(c2noc3cc(F)ccc23)CC1)C(=O)C(O)C(F)(F)F (centres unmarked)", "REPORTED_MEASUREMENT": "<0.05 mL/min/mg protein"}
{"COMPOUND": "CCN(CCN1CCC(c2noc3cc(F)ccc23)CC1)S(=O)(=O)CCO", "REPORTED_MEASUREMENT": "<0.05 mL/min/mg protein"}
{"COMPOUND": "CCN(CCN1CCC(n2ncc3cc(F)ccc32)CC1)S(=O)(=O)CCO", "REPORTED_MEASUREMENT": "<0.05 mL/min/mg protein"}
{"COMPOUND": "CCN(CCCN1CCC(c2noc3cc(F)ccc23)CC1)S(=O)(=O)C(C)CO (centres unmarked)", "REPORTED_MEASUREMENT": "<0.05 mL/min/mg protein"}
{"COMPOUND": "CCN(CCN1CCC(c2noc3cc(F)ccc23)CC1)C(=O)C1CCCCC1O (centres unmarked)", "REPORTED_MEASUREMENT": "0.268 mL/min/mg protein"}
{"COMPOUND": "CCN(CCN1CCC(n2ccc3cc(F)ccc32)CC1)C(=O)C(C)O (centres unmarked)", "REPORTED_MEASUREMENT": "<0.05 mL/min/mg protein"}
{"COMPOUND": "CCN(CCN1CCC(c2noc3cc(F)ccc23)CC1)C(=O)C1CN(C(C)=O)CCC1O (centres unmarked)", "REPORTED_MEASUREMENT": "<0.05 mL/min/mg protein"}
{"COMPOUND": "CCN(CCN1CCC(c2noc3cc(F)ccc23)CC1)C(=O)CO", "REPORTED_MEASUREMENT": "0.089 mL/min/mg protein"}

src = patent US11339151B2
